Tested on: MT4
Test: Cytotoxicity against human MT4 cells assessed as reduction in cell viability after 3 days by CytoTox-Glo assay
Type: cell-based
Conditions: mt4, 72 h
Measured Quantity: CC50

>>> df
                                   molecule  reported_measurement
0  Cc1cn([C@H]2C[C@H](N=[N+]=[N-])[C@@H](CO)O2)c(=O)[nH]c1=O [ZIDOVUDINE]              > 0.1 µM

Lookup: Could you share what CC50 was measured for COc1cc(/C=C/C(=O)O)ccc1O [FERULATE] , tested on MT4?
Found: > 10 µM

Lookup: What measured CC50 is associated with CCOC(=O)/C=C/c1ccc(O)c(OC)c1 [ETHYL FERULATE] on MT4?
Found: > 10 µM

---

Test: Selectivity index, ratio of CC50 for human MT4 cells to EC50 for HIV1 NL4-3 infected in human MT4 cells
Format: toxicity, cell-based
Details: read-out: Ratio CC50/EC50
# selectivity ratio annotations
The response must contain the number and no unit.

Compound	selectivity ratio
COc1cc(/C=C/C(=O)OCCCc2ccc(O[C@H](COC(=O)/C=C/c3ccc(O)c(OC)c3)[C@@H](OC)c3ccc(O)c(OC)c3)c(OC)c2)ccc1O (stereo in doubt; 1b)	3.2

Next up:
Lookup: Would you mind telling me what selectivity ratio value was observed for COc1cc(/C=C/C(=O)OCCCc2ccc(O[C@@H](COC(=O)/C=C/c3ccc(O)c(OC)c3)[C@H](OC)c3ccc(O)c(OC)c3)c(OC)c2)ccc1O (stereo in doubt; 1a) ?
Found: 3.3

---

Tested on: MT4
Assay: Cytotoxicity against human MT4 cells assessed as reduction in cell viability after 3 days by CytoTox-Glo assay
Type: cell-based
Details: mt4, 72 h, 72 h
Measured CC50 by item
Write the number in µM without appending the unit.

Compound	CC50 [µM]
COc1cc(/C=C/C(=O)OCCCc2ccc(O[C@H](COC(=O)/C=C/c3ccc(O)c(OC)c3)[C@@H](OC)c3ccc(O)c(OC)c3)c(OC)c2)ccc1O (stereo in doubt; 1b)	17

Then there is this compound:
Lookup: What value of CC50 on MT4 does COc1cc(/C=C/C(=O)OCCCc2ccc(O[C@@H](COC(=O)/C=C/c3ccc(O)c(OC)c3)[C@H](OC)c3ccc(O)c(OC)c3)c(OC)c2)ccc1O (stereo in doubt; 1a) have?
Found: 21
